Target: CDK4/CyclinD (Homo sapiens, UniProt P11802)
Sequence (P11802 whole entry, species assumed): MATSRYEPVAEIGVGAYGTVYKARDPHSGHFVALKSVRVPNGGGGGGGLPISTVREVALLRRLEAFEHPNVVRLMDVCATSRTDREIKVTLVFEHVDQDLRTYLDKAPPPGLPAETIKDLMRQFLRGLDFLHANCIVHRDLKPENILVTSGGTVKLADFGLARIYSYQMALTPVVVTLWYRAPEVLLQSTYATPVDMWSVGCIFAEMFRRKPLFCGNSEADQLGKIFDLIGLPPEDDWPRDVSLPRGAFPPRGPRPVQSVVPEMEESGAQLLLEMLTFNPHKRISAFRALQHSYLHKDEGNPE
Sequence (P24385 whole entry partner, species assumed): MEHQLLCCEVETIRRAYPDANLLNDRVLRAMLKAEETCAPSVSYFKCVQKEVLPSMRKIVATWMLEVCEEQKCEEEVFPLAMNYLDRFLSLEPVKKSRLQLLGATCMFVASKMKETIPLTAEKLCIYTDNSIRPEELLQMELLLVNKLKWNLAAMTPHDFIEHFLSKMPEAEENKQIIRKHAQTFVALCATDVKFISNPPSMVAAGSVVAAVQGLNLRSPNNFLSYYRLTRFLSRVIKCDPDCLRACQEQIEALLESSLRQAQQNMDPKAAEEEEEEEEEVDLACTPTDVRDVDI
Assay: CDK4/CyclinD inhibition assay
Details: mean of at least two independent experiments
ASSAY_READOUT: pIC50
// pIC50 here means minus log10 of the molar concentration (mol/L)

1) O=c1[nH]c(Nc2cccc(Cl)c2)nc2nc(Nc3ccc(NC(=S)Nc4ccccc4)cc3)nc(-c3ccc(O)cc3O)c12 ... 5.16
2) Cc1cc(C)nc(NS(=O)(=O)c2ccc(Nc3nc(C)c4c(=O)[nH]c(SCc5ccccc5)nc4n3)cc2)n1 ... 6.18
3) O=c1[nH]c(Nc2ccc(S(=O)(=O)O)cc2)nc2nc(Nc3ccc(NC(=S)Nc4ccccc4)cc3)nc(-c3ccc(O)cc3O)c12 ... 5.28
4) O=c1[nH]c(NCc2ccccc2)nc2nc(Nc3ccc(NC(=S)Nc4ccccc4)cc3)nc(-c3ccc(O)cc3O)c12 ... 5.48

Would you kindly look at the next entry?
# input compound: "Cc1cc(C)nc(NS(=O)(=O)c2ccc(Nc3nc(-c4ccc(O)cc4O)c4c(=O)[nH]c(SCc5ccccc5)nc4n3)cc2)n1" ; wanted: its pIC50
5.67
